System: Enterococcus sp.
Test: in vitro antibacterial evaluation, MIC by broth dilution
Assay type: cell-based
Conditions: broth dilution, 18 hours at 35° C.
Known MIC Enterococcus faecalis (GC 3059) of a selection of compounds
reportedMetric: MIC Enterococcus faecalis (GC 3059) (µg/mL)

compound	targetSystem	reportedMetric	relation	valueReported
CC(C)CC(=O)OC1C(O)C(OC2C(CO)OC(Oc3ccc(CC4NC(=O)C(C(C)c5ccccc5)NC(=O)CNC(=O)C(CO)NC(=O)C(C(O)C5CNC(=N)N5C5OC(CO)C(O)C(O)C5O)NC(=O)C(C(O)C5CNC(=N)N5)NC4=O)cc3)C(O)C2O)OC2COC3(OC21)C1CC2CC(C1)CC3C2 (stereo not drawn) [Example 218]	Enterococcus sp.	MIC Enterococcus faecalis (GC 3059)	=	4
CN=C1N(C)CC(C(O)C2NC(=O)C(Cc3ccc(OC4OC(CO)C(OC5OC(CO)C(O)C(O)C5O)C(O)C4O)cc3)NC(=O)C(C(C)c3ccccc3)NC(=O)CNC(=O)C(CO)NC(=O)C(C(O)C3CN(C)C(=NC)N3C3OC(CO)C(O)C(O)C3O)NC2=O)N1C (stereo not drawn) [Example 64]	Enterococcus sp.	MIC Enterococcus faecalis (GC 3059)	>	128
COc1ccc2cc(COC3C(CO)OC(OC4C(CO)OC(Oc5ccc(CC6NC(=O)C(C(C)c7ccccc7)NC(=O)CNC(=O)C(CO)NC(=O)C(CC7CNC(=N)N7C7OC(CO)C(O)C(O)C7O)NC(=O)C(CC7CNC(=N)N7)NC6=O)cc5)C(O)C4O)C(O)C3O)ccc2c1 (stereo not drawn) [Example 245a]	Enterococcus sp.	MIC Enterococcus faecalis (GC 3059)	=	4
CN=C1N(C)CC(CC2NC(=O)C(Cc3ccc(OC4OC(CO)C(OC5OC(CO)C(O)C(O)C5O)C(O)C4O)cc3)NC(=O)C(C(C)c3ccccc3)NC(=O)CNC(=O)C(CO)NC(=O)C(CC3CN(C)C(=NC)N3C3OC(CO)C(O)C(O)C3O)NC2=O)N1C (stereo not drawn) [Example 74]	Enterococcus sp.	MIC Enterococcus faecalis (GC 3059)	>	128
Cc1ccc(COCC2OC(OC3C(CO)OC(Oc4ccc(CC5NC(=O)C(C(C)c6ccccc6)NC(=O)CNC(=O)C(CO)NC(=O)C(C(O)C6CNC(=N)N6C6OC(CO)C(O)C(O)C6O)NC(=O)C(C(O)C6CNC(=N)N6)NC5=O)cc4)C(O)C3O)C(O)C(O)C2O)cc1 (stereo not drawn) [Example 234]	Enterococcus sp.	MIC Enterococcus faecalis (GC 3059)	=	8
CC(c1ccccc1)C1NC(=O)CNC(=O)C(CO)NC(=O)C(C(O)C2CN(Cc3ccc4ccccc4c3)C(=N)N2C2OC(CO)C(O)C(O)C2O)NC(=O)C(C(O)C2CNC(=N)N2)NC(=O)C(Cc2ccc(OC3OC(CO)C(OC4OC(CO)C(O)C(O)C4O)C(O)C3O)cc2)NC1=O (stereo not drawn) [Example 67]	Enterococcus sp.	MIC Enterococcus faecalis (GC 3059)	=	128
